Tested on: Peroxiredoxin-4 (PRDX4_HUMAN)
Experiment: LC–MS proteome analysis, PRDX4
Type: cell-based, Homo sapiens
Conditions: PC3, 24 h, IC50 concentration, % of control
measurementLabel: Protein Intensity, % (PRDX4) (%)
Give bare numbers, in %.

{"compound": "O=[N+]([O-])c1cc([N+]2=C(Nc3ccccc3Br)[S][Cu-2]23[S]C(Nc2ccccc2Br)=[N+]3c2ccc(Cl)c([N+](=O)[O-])c2)ccc1Cl [Compound 1]", "measurementLabel": "Protein Intensity, % (PRDX4)", "value": 72.6}

Dear colleague, could you please provide Protein Intensity, % (PRDX4) for the compounds listed below?
1. O=[N+]([O-])c1cc([N+]2=C(Nc3ccc(I)cc3)[S][Cu-2]23[S]C(Nc2ccc(I)cc2)=[N+]3c2ccc(Cl)c([N+](=O)[O-])c2)ccc1Cl [Compound 8]
2. O=[N+]([O-])c1cc([N+]2=C(Nc3ccc(Br)cc3)[S][Cu-2]23[S]C(Nc2ccc(Br)cc2)=[N+]3c2ccc(Cl)c([N+](=O)[O-])c2)ccc1Cl [Compound 3]

a:
30.8
61.1

q: # query: Protein Intensity, % (PRDX4) | item O=[N+]([O-])c1cc([N+]2=C(Nc3ccccc3F)[S][Cu-2]23[S]C(Nc2ccccc2F)=[N+]3c2ccc(Cl)c([N+](=O)[O-])c2)ccc1Cl [Compound 7] | system: Peroxiredoxin-4 (PRDX4_HUMAN)
a: 35.7

###

Test system: S. aureus ATCC 29213
Test: MIC, twofold serial microdilution
Type: cell-based, Staphylococcus aureus
Conditions: S. aureus ATCC 29213, 18 h, 35 °C
measurementLabel: MIC (µg/mL)
Numbers only, in µg/mL.

Solved entries (count: 2):
{"smilesData": "O=[N+]([O-])c1cc([N+]2=C(Nc3ccccc3Br)[S][Cu-2]23[S]C(Nc2ccccc2Br)=[N+]3c2ccc(Cl)c([N+](=O)[O-])c2)ccc1Cl", "unitString": "µg/mL", "MIC": 8}
{"smilesData": "O=[N+]([O-])c1cc([N+]2=C(Nc3cccc(Br)c3)[S][Cu-2]23[S]C(Nc2cccc(Br)c2)=[N+]3c2ccc(Cl)c([N+](=O)[O-])c2)ccc1Cl", "unitString": "µg/mL", "MIC": 16}

Proceeding to the next compound to report its MIC.
q: Which measured MIC belongs to O=[N+]([O-])c1cc([N+]2=C(Nc3ccc(F)c(Cl)c3)[S][Cu-2]23[S]C(Nc2ccc(F)c(Cl)c2)=[N+]3c2ccc(Cl)c([N+](=O)[O-])c2)ccc1Cl , tested on S. aureus ATCC 29213?
a: 4

###

System: Glutathione S-transferase omega-1 (GSTO1_HUMAN)
Experiment: LC–MS proteome analysis, GSTO1
Format: cell-based, Homo sapiens
Details: SW620, 24 h, IC50 concentration, % of control
measurementLabel: Protein Intensity, % (GSTO1)
Reply with a number, then the unit it belongs to.

{"smilesData": "O=[N+]([O-])c1cc([N+]2=C(Nc3ccc(I)cc3)[S][Cu-2]23[S]C(Nc2ccc(I)cc2)=[N+]3c2ccc(Cl)c([N+](=O)[O-])c2)ccc1Cl", "targetOfAssay": "Glutathione S-transferase omega-1 (GSTO1_HUMAN)", "Protein Intensity, % (GSTO1)": "65.0%"}
{"smilesData": "O=[N+]([O-])c1cc([N+]2=C(Nc3ccccc3F)[S][Cu-2]23[S]C(Nc2ccccc2F)=[N+]3c2ccc(Cl)c([N+](=O)[O-])c2)ccc1Cl", "targetOfAssay": "Glutathione S-transferase omega-1 (GSTO1_HUMAN)", "Protein Intensity, % (GSTO1)": "52.5%"}
{"smilesData": "O=[N+]([O-])c1cc([N+]2=C(Nc3ccccc3Br)[S][Cu-2]23[S]C(Nc2ccccc2Br)=[N+]3c2ccc(Cl)c([N+](=O)[O-])c2)ccc1Cl", "targetOfAssay": "Glutathione S-transferase omega-1 (GSTO1_HUMAN)", "Protein Intensity, % (GSTO1)": "85.5%"}

Now turn to the next compound.
q: Which Protein Intensity, % (GSTO1) is reported for this compound? O=[N+]([O-])c1cc([N+]2=C(Nc3ccc(Br)cc3)[S][Cu-2]23[S]C(Nc2ccc(Br)cc2)=[N+]3c2ccc(Cl)c([N+](=O)[O-])c2)ccc1Cl
a: 77.0%

###

Test system: C. albicans ATCC 10231
Experiment: MIC, twofold serial microdilution
Assay type: cell-based, Candida albicans
Details: C. albicans ATCC 10231, 24 h, 35 °C
Would you mind telling me the reported MIC of each entry?
Numbers only, in mg/L.

Here's what some known entries look like.
{"molecule": "O=[N+]([O-])c1cc([N+]2=C(Nc3ccc(Cl)c(Cl)c3)[S][Cu-2]23[S]C(Nc2ccc(Cl)c(Cl)c2)=[N+]3c2ccc(Cl)c([N+](=O)[O-])c2)ccc1Cl [Compound 5]", "MIC / mg/L": 128}
{"molecule": "O=[N+]([O-])c1cc([N+]2=C(Nc3ccccc3F)[S][Cu-2]23[S]C(Nc2ccccc2F)=[N+]3c2ccc(Cl)c([N+](=O)[O-])c2)ccc1Cl [Compound 7]", "MIC / mg/L": 128}

q: Could you share what MIC was measured for O=[N+]([O-])c1cc([N+]2=C(Nc3ccc(Br)cc3)[S][Cu-2]23[S]C(Nc2ccc(Br)cc2)=[N+]3c2ccc(Cl)c([N+](=O)[O-])c2)ccc1Cl [Compound 3] , tested on C. albicans ATCC 10231?
a: 64

###

Tested on: Thioredoxin-dependent peroxide reductase, mitochondrial (PRDX3_HUMAN)
Test: LC–MS proteome analysis, PRDX3
Format: cell-based, Homo sapiens
Details: SW620, 24 h, IC50 concentration, % of control
measurementLabel: Protein Intensity, % (PRDX3) (%)
Give bare numbers, in %.

{"molecule": "O=[N+]([O-])c1cc([N+]2=C(Nc3ccccc3Br)[S][Cu-2]23[S]C(Nc2ccccc2Br)=[N+]3c2ccc(Cl)c([N+](=O)[O-])c2)ccc1Cl [Compound 1]", "value": 69.9}
{"molecule": "O=[N+]([O-])c1cc([N+]2=C(Nc3ccccc3F)[S][Cu-2]23[S]C(Nc2ccccc2F)=[N+]3c2ccc(Cl)c([N+](=O)[O-])c2)ccc1Cl [Compound 7]", "value": 61.2}
{"molecule": "O=[N+]([O-])c1cc([N+]2=C(Nc3ccc(Br)cc3)[S][Cu-2]23[S]C(Nc2ccc(Br)cc2)=[N+]3c2ccc(Cl)c([N+](=O)[O-])c2)ccc1Cl [Compound 3]", "value": 67.5}

q: I have this molecule here, O=[N+]([O-])c1cc([N+]2=C(Nc3ccc(I)cc3)[S][Cu-2]23[S]C(Nc2ccc(I)cc2)=[N+]3c2ccc(Cl)c([N+](=O)[O-])c2)ccc1Cl [Compound 8] , and I need its recorded Protein Intensity, % (PRDX3).
a: 95.2

###

System: S. epidermidis ATCC 35984
Test: MIC, twofold serial microdilution
Type: cell-based, Staphylococcus epidermidis
Details: S. epidermidis ATCC 35984, 18 h, 35 °C
measurementLabel: MIC (µg/mL)
Answers are plain numbers, in µg/mL.

// worked examples, MIC included
{"smilesData": "O=[N+]([O-])c1cc(NC2=[N+](c3ccc(Cl)c([N+](=O)[O-])c3)[Cu-2]3([S]2)[S]C(Nc2ccc(Cl)c([N+](=O)[O-])c2)=[N+]3c2ccc(Cl)c([N+](=O)[O-])c2)ccc1Cl", "measurementLabel": "MIC", "unitString": "µg/mL", "value": 8}
{"smilesData": "O=[N+]([O-])c1cc([N+]2=C(Nc3ccccc3F)[S][Cu-2]23[S]C(Nc2ccccc2F)=[N+]3c2ccc(Cl)c([N+](=O)[O-])c2)ccc1Cl", "measurementLabel": "MIC", "unitString": "µg/mL", "value": 32}
{"smilesData": "O=[N+]([O-])c1cc([N+]2=C(Nc3ccc(F)c(Cl)c3)[S][Cu-2]23[S]C(Nc2ccc(F)c(Cl)c2)=[N+]3c2ccc(Cl)c([N+](=O)[O-])c2)ccc1Cl", "measurementLabel": "MIC", "unitString": "µg/mL", "value": 4}
{"smilesData": "O=[N+]([O-])c1cc([N+]2=C(Nc3ccc(Cl)c(Cl)c3)[S][Cu-2]23[S]C(Nc2ccc(Cl)c(Cl)c2)=[N+]3c2ccc(Cl)c([N+](=O)[O-])c2)ccc1Cl", "measurementLabel": "MIC", "unitString": "µg/mL", "value": 32}
{"smilesData": "O=[N+]([O-])c1cc([N+]2=C(Nc3ccc(I)cc3)[S][Cu-2]23[S]C(Nc2ccc(I)cc2)=[N+]3c2ccc(Cl)c([N+](=O)[O-])c2)ccc1Cl", "measurementLabel": "MIC", "unitString": "µg/mL", "value": 4}
{"smilesData": "O=[N+]([O-])c1cc([N+]2=C(Nc3cccc(Br)c3)[S][Cu-2]23[S]C(Nc2cccc(Br)c2)=[N+]3c2ccc(Cl)c([N+](=O)[O-])c2)ccc1Cl", "measurementLabel": "MIC", "unitString": "µg/mL", "value": 16}

Consider the following items and state reported MIC for each.
1. O=[N+]([O-])c1cc([N+]2=C(Nc3ccc(Br)cc3)[S][Cu-2]23[S]C(Nc2ccc(Br)cc2)=[N+]3c2ccc(Cl)c([N+](=O)[O-])c2)ccc1Cl
2. O=[N+]([O-])c1cc([N+]2=C(Nc3ccccc3Br)[S][Cu-2]23[S]C(Nc2ccccc2Br)=[N+]3c2ccc(Cl)c([N+](=O)[O-])c2)ccc1Cl

a:
16
8
